B1: H2-Kb / E8 (parent)
chain 1: GDSVTQTEGLVTVTEGLPVKLNCTYQTTYLTIAFFWYVQYLNEAPQVLLKSSTDNKRTEHQGFHATLHKSSSSFHLQKSSAQLSDSALYYCALNTNTGKLTFGDGTVLTVKP
chain 2: EAAVTQSPRNKVAVTGGKVTLSCNQTNNHNNMYWYRQDTGHGLRLIHYSYGAGSTEKGDIPDGYKASRPSQENFSLILELATPSQTSVYFCASGDWGAGTGQLYFGEGSKLTVL
chain 3: not shown
chain 4: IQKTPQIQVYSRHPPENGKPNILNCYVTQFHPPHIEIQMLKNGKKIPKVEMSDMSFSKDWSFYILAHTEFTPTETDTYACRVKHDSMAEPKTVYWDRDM
chain 5: SIINFEKL

- Variants of: B1
- assay: % of reporter cells activated (NFAT-GFP), raw; further: test concentration or dose not given here
- measurement_parameters: with E8; scale: % of reporter cells activated
ratio to parent vs 0.2: less than gives met; not less than gives not met.

mutation_label	class_name
chain 5 I2N	not met
chain 5 L8V	not met
chain 5 E6D	not met

Qu. Could you please tell me whether ratio to parent recorded for chain 5 N4P is less than 0.2?
Ans. not met

Qu. Then chain 5 E6F ?
Ans. met

Qu. Further, for chain 5 I3A ?
Ans. not met

Qu. Here is the next variant: chain 5 L8K
Ans. not met

Qu. Can you check chain 5 L8T next?
Ans. not met
